src = patent US20260193315A1

Molecular target: 4-1BB on transfected NF-κB Jurkat cells (UniProt Q07011 24-255, limits assumed)
Sequence (Q07011 24-255 limits assumed): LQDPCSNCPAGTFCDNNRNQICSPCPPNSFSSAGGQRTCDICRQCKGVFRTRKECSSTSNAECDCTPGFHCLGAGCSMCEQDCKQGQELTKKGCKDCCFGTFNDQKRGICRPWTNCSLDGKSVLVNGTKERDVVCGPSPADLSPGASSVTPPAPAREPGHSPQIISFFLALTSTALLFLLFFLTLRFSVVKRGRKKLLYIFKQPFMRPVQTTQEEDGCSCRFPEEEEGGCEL
Experiment: cell-based or functional assay
Examples of binders with documented Reporter (vs wt) follow.

// known answers, use as guide
{"columns": ["binder", "measurement label", "value observed"],
 "data": [
  ["5D9 (ligand, also called 4-1BBL variant 5D9 (phagemid clone, bacterial supernatant)) 4-1BBL variant: ACPWAVSGARASPGSAASPRLREGPELSPDDPAGLLDLRQGMFAQLVAQNVLLIDGPLSFYSDPGLAGVSLTGGLSYKEDTKELVVAKAGVYYVFFQLELRRVVAGTGSGSVSLALHLQPLRSAAGAAALALTVDLPPASSEARNSAFGFQGRLLHLSAGQRLGVHLHTEARARHAWQMTQGATVLGLFRVTPEIPAGLPSPRSE", "Reporter (vs wt)", 1.48],
  ["4E10 (ligand, also called 4-1BBL variant 4E10 (phagemid clone, bacterial supernatant)) 4-1BBL variant: ACPWAVSGARASPGSAASPRLREGPELSPDDPAGLLDLRQGMFAQLVAQNVLLIDGPLSWYPDPGLAGVSLTGGLSYKEDTKELVVAKAGVYYVFFQLELRRVVAREGSGSVSLALHLQPLRSAAGAAALALTVDLPPASSEARNSAFGFQGRLLHLSAGQRLGVHLHTEARARHAMQLTQGATVLGLFRVTPEIPAGLPSPRSE", "Reporter (vs wt)", 2.74]
]}

Then there is this binder:
*Q* Endpoint output: Reporter (vs wt) of 4C2 (ligand, also called 4-1BBL variant 4C2 (phagemid clone, bacterial supernatant)) 4-1BBL variant: ACPWAVSGARASPGSAASPRLREGPELSPDDPAGLLDLRQGMFAQLVAQNVLLIDGPLSWYPDPGLAGVSLTGGLSYKEDTKELVVAKAGVYYVFFQLELRRVVAGRGSGSVSLALHLQPLRSAAGAAALALTVDLPPASSEARNSAFGFQGRLLHLSAGQRLGVHLHTEARARHAWQFTQGATVLGLFRVTPEIPAGLPSPRSE . Value?
*A* 0.71
